- Test system: M. marinum in BV2 microglial cells
- Format: cell-based, Mycobacterium marinum
Consider the following compounds; for each one, report its Intracellular infection assays: BV2 / M. marinum.
Response field accepts a number only; no unit should be typed.

Query string: Form field - read-out: Intracellular infection assays: BV2 / M. marinum; system: M. marinum in BV2 microglial cells; submitted item: O=C(Nc1nnc(-c2ccc(Cl)cc2)o1)c1cccc(C(F)(F)F)c1 [GSK130506A]
Result string: 1.46

Query string: Intracellular infection assays: BV2 / M. marinum of CCOc1ccc(OCc2ccc(C(=O)NNC(=O)c3ccc([N+](=O)[O-])o3)cc2)cc1 [GSK426032A] on M. marinum in BV2 microglial cells?
Result string: 1.27

Query string: Param readout = Intracellular infection assays: BV2 / M. marinum; param system = M. marinum in BV2 microglial cells; param query = COc1cc(Cc2cnc(N)nc2N)c2cnccc2c1N(C)C [GW360240X] ; response: value
Result string: 1.06

Query string: Record lookup: for M. marinum in BV2 microglial cells, what Intracellular infection assays: BV2 / M. marinum belongs to c1ccc(-c2csc(Nc3nc4cc5c(cc4s3)OCO5)n2)nc1 [GSK735826A] ?
Result string: 1.47

Query string: Recorded Intracellular infection assays: BV2 / M. marinum for Cc1cc(NCCc2ccccc2)nc(/N=C(\N)Nc2ccc(Cl)cc2)n1 [CCI7967] with M. marinum in BV2 microglial cells, please?
Result string: 1.01

Query string: Please tell me: Intracellular infection assays: BV2 / M. marinum of COc1cc(Nc2ccccc2)ccc1NS(=O)(=O)c1c(C)noc1C [GSK270670A] , system M. marinum in BV2 microglial cells?
Result string: 1.42

Query string: What is its Intracellular infection assays: BV2 / M. marinum for M. marinum in BV2 microglial cells? Entry: O=C(Nc1nnc(-c2ccc(Cl)s2)o1)c1ccc(Cl)s1 [GSK316438A]
Result string: 1.30

Query string: Recall the recorded Intracellular infection assays: BV2 / M. marinum for c1ccc(-c2nnc(Sc3ccnc(N4CCN(c5ccncc5)CC4)n3)n2CCCN2CCOCC2)nc1 [GSK547543A] with M. marinum in BV2 microglial cells and state it.
Result string: 1.22

Query string: Item CSc1ccc(C(=O)Nc2nc(-c3ccccn3)cs2)cc1 [GSK921295A] with M. marinum in BV2 microglial cells - Intracellular infection assays: BV2 / M. marinum?
Result string: 1.23

Query string: Provide value of Intracellular infection assays: BV2 / M. marinum for this record tested with M. marinum in BV2 microglial cells: O=C(OCc1c(F)cccc1Cl)c1ccc(-n2ncc(Cl)c(Cl)c2=O)cc1 [GSK1826825A]
Result string: 1.71

Query string: Look up Intracellular infection assays: BV2 / M. marinum with M. marinum in BV2 microglial cells for this compound: O=C(NC1=NCCS1)c1sc2cc(F)ccc2c1Cl [GSK1107112A]
Result string: 1.29
